Each entry below carries its reported normalized growth.
Assay: chemical genetic growth profiling, strain panel (AID 1159580);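 further: tested at 20 µM; growth read once vehicle control cultures reached saturation at 30 °C; 1 = growth at the plate median or of vehicle wells; lower values mean less growth of the strain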
Conditions: S. cerevisiae deletion strains, growth OD, locus YJL187C, strain SWE1, hits give low values
Out of some 5,500 compounds screened, about 2,000 (36%) were called active. Another 18% or so got no clear call; they are omitted. This is one part of the list.
measure name: normalized growth

O=C(O)c1ccc(S(=O)(=O)N(Cl)Cl)cc1	0.994
N/C(=N/OC(=O)c1ccccc1)c1ccc(-c2csnn2)cc1	1.02
CCCSc1ccc2nc(NC(=O)OC)[nH]c2c1	1
C(=C(c1ccccc1)c1ccccc1)N1CCC1	1
O=C(O)c1ccccc1	0.982
Nc1ccc(S(=O)(=O)NC(=O)c2ccccc2)cc1	0.992
CC(C)(C)NC[C@H](O)c1ccc(O)c(CO)c1	1.02
Cc1cc(=O)oc2cc(O)c(O)cc12	0.999
O=C(NCO)c1cccnc1	1
CC(C)CCCC(C)[C@H]1CCC2C3C(=O)C=C4C[C@@H](O)CC[C@]4(C)C3CC[C@@]21C (stereo partly drawn)	1
CCCCCCc1cc2c(C)cc(=O)oc2cc1O	0.938
CCC(C)C(=O)OC1[C@@H]2CC3=C4CC(=O)O[C@@H](c5ccoc5)[C@]4(C)CCC3[C@@](C)(C2=O)[C@@H](CC(=O)OC)C1(C)C (stereo partly drawn)	1.01
NC(=O)c1cccnc1	0.982

---

Assay: chemical genetic growth profiling, strain panel (AID 1159580);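 further: tested at 20 µM; growth read once vehicle control cultures reached saturation at 30 °C; 1 = growth at the plate median or of vehicle wells; lower values mean less growth of the strain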
Conditions: S. cerevisiae deletion strains, growth OD, locus YJL095W, strain BCK1 (second series)
Out of some 5,500 compounds screened, about 2,000 (36%) were called active. Another 18% or so got no clear call; they are omitted. Rule as the data show it: active = normalized growth mostly below about 0.91 (no sharp cut-off); inconclusive = no clear call, values can overlap the other calls; inactive = mostly above about 0.92. This is one part of the list.
Possible outcomes: t (active), f (inactive)

Nc1ccc(S(=O)(=O)NC(=O)c2ccccc2)cc1	f
NS(=O)(=O)c1cc2c(cc1Cl)NC(CSCc1ccccc1)=NS2(=O)=O	f
CC(C)(C)NCC(O)c1ccc(O)c(CO)c1 (centres undefined)	f
CC(=O)N[C@@H](Cc1c[nH]c2ccccc12)C(N)=O	f
C=C1c2c(Cl)ccc(O)c2C(O)=C2C(=O)[C@]3(O)C(O)=C(C(N)=O)C(=O)[C@@H](N(C)C)[C@@H]3[C@@H](O)[C@H]12	f
CC(=O)O[C@H]1CCC2(C)C3=C(CCC2C1(C)C)[C@@]1(C)CC[C@@H](C(C)CCC=C(C)C)[C@]1(C)CC3 (some centres undefined)	f
CC(=O)O[C@@H]1CC2C(C)(C)C(=O)C=C[C@]2(C)C2CC[C@]3(C)C(=CC(=O)O[C@H]3c3ccoc3)[C@@]21C (some centres undefined)	f
C[C@H]1c2cccc(O)c2C(O)=C2C(=O)[C@]3(O)C(O)=C(C(N)=O)C(=O)[C@@H](N(C)C)[C@@H]3[C@@H](O)[C@@H]21	f
C=C1c2cccc(O)c2C(O)=C2C(=O)[C@]3(O)C(O)=C(C(N)=O)C(=O)[C@@H](N(C)C)[C@@H]3[C@@H](O)[C@H]12	f
CCCN(CCC)S(=O)(=O)c1ccc(C(=O)O)cc1	f
O=C(O)c1ccc(S(=O)(=O)N(Cl)Cl)cc1	f
CC(CCc1ccccc1)NCC(O)c1ccc(O)c(C(N)=O)c1 (centres undefined)	f
CC(=O)O[C@H]1CC[C@@]2(C)C(C[C@@H](OC(C)=O)[C@@]3(C)C4=CC(=O)O[C@@H](c5ccoc5)[C@]4(C)CCC23)C1(C)C (some centres undefined)	f
O=C(NCO)c1cccnc1	f
Cc1cc(=O)oc2cc(O)c(O)cc12	f
CC(C)NCC(O)COc1ccc(COCCOC(C)C)cc1 (centres undefined)	f
CC(=O)O[C@H]1CC[C@@]2(C)C(=CC(=O)C3C4CCC(C(C)CCCC(C)C)[C@@]4(C)CCC32)C1 (some centres undefined)	f
CN(C)[C@@H]1C(=O)C(C(N)=O)=C(O)[C@@]2(O)C(=O)C3=C(O)c4c(O)ccc(Cl)c4[C@@H](O)[C@H]3C[C@@H]12	f
Oc1c(Cl)cc(Cl)cc1Sc1cc(Cl)cc(Cl)c1O	t
